Biological target: T1, Epstein-Barr virus BHRF1 a.a. 1-161 with C-terminal avi-6his tag (Epstein-Barr virus)
T1 construct: also called EBV BHRF1; BHRF1-biotin
T1 chain: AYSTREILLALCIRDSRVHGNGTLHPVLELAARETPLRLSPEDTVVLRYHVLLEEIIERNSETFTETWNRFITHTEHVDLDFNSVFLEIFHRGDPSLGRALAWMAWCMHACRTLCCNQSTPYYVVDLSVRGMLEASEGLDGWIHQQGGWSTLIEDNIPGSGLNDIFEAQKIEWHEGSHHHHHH
Assay: yeast display library, FACS sort at 400 nM BHRF1, deep sequencing
Provide the reported Log2 enrichment ratio of each item.
Numbers only, in log2.

Below: 3 binders and their reported Log2 enrichment ratio.
Index 71 (designed binder) GERAERARDWAKDQMDDELEKAREKLWKLAFIAFKFYLKLELLFKLMFRWIAIMLEAIGDFFNVWAIAKRWLERYKLQNNIRKEEIEKAKERAKKLYEEAADKAAKLGRFYMKLLTSG = -3.07
Index 62 (designed binder) GKLGEELREDAEKKGEEDMRRFERRIREIKRKLKFGYDFEQRKREATHKWIAFALEMIGDAFNFAQKLERALELFKKWNIYSEDDLRELKKRFEEAKEKLKKFADRIRDEGLKAVLLG = -2.65
Index 69 (designed binder) GEQAEKALRRAKRRAKWGLDDAKDILDDIEAEIRWYYPRDEERFKFVDRWIAAMLMVIGDLFNAKREALERALRLMRKGLISQDQFKKFMEKLEKIILWGKFQARKLGREKESEITQG = -3.99

// Log2 enrichment ratio value for Index 51 (designed binder) GWTALWLKDFTEQEARKKFREALYYGWMMAMRALEHQLQADELAMWTALWIAAMLEAIGDMFNDKLRAEKYALLLIWLNLYHKDIAEKWREEHEEKLKEALQEMFEAAEKFDKFAKFG : -2.43
